System: Hek293T
Test Name: Primary qHTS to identify gynecologic anti-cancer compounds using libraries of approved drugs and bioactive compounds (AID 1345084); note: nearly all actives have a fitted effect of over 55% in size
Condition Summary: Gynecologic cancer cell panel viability, ATPlite luminescence, 48 h, control line for the selectivity index; series mostly up to 57.5 µM
Inconclusive results are not listed. The source made the active and inactive calls. Calls come from the whole dose curve; as a rule, active = well fitted cell-killing curve with a large enough effect; inconclusive = small, poorly fitted or top-dose-only effect, or effect the other way; inactive = flat fitted curve, though single readings scatter.
Pick one and only one: label 1 for active, label 0 for inactive

Some entries whose results are on file:
CN(C)CCCC1(c2ccc(F)cc2)OCc2cc(C#N)ccc21 (centres undefined) | label 0
Cc1cc(=O)c2c(O)c3c(O)cc(=O)c4c3c3c(cc(O)c1c23)C(C)(C)C=4O | label 1
O=C(O)CCNC(=O)c1ccc(N=Nc2ccc(O)c(C(=O)O)c2)cc1 | label 0
COc1ccc(C2(C#N)CCC(C(=O)O)CC2)cc1OC1CCCC1 (centres undefined) | label 0
Cc1cc(C2CCCCC2)n(O)c(=O)c1 | label 1

Query: Give the logged outcome of this assay for the following molecule: CCC(C)(Oc1ccc(C2(c3ccc(OC(C)(CC)C(=O)O)cc3)CCCCC2)cc1)C(=O)O (centres undefined)
Response: label 0

Query: Give the logged outcome of this assay for the following molecule: COCCCOc1ccnc(CS(=O)c2nc3ccccc3[nH]2)c1C (centres undefined)
Response: label 0

Query: Give the logged outcome of this assay for the following molecule: CCCCC(CC)COC(=O)C(C#N)=C(c1ccccc1)c1ccccc1 (centres undefined)
Response: label 0

###

Test Name: Quantitative High-Throughput drug screen in 47 multiple myeloma cell lines against the NCATS MIPE library collection: PE2_PLB cell viability assay (AID 1919869); note: nearly all actives have a fitted effect of over 35% in size; note: potency is the fitted concentration of half-maximal effect
Condition Summary: PE2_PLB myeloma cells viability, ATP luminescence, 48 h; series mostly up to 45.8 µM
Results filed as inconclusive are left out. The source made the active and inactive calls. Calls follow the shape of the dose curve; as a rule, active = well fitted cell-killing curve with a large enough effect; inconclusive = small, poorly fitted or top-dose-only effect, or effect the other way; inactive = no such curve, though single readings can be large or run the other way. Peptide text beside a SMILES is read from it.
Quantity: Potency

See these solved cases before continuing.
O=c1ccc2ccc(O)c(O)c2o1 | 13.2 µM (active)
C[C@@H](c1ncncc1F)[C@](O)(Cn1cncn1)c1ccc(F)cc1F | inactive
N=C(N=C(N)N)N1CCOCC1 | inactive
Oc1ccc2ccccc2c1SSc1c(O)ccc2ccccc12 | 7.43 µM (active)
O=C(O)c1cn(-c2ccc(F)cc2)c2cc(N3CCNCC3)c(F)cc2c1=O | inactive

Items follow; give Potency for each.
1. O=C(O)c1cc(=O)c2c(OCC(O)COc3cccc4oc(C(=O)O)cc(=O)c34)cccc2o1
2. COC(=O)[C@H](Cc1ccccc1)NC(=O)[C@@H](N)CC(=O)O (H-Asp-Phe-OMe)
3. NNc1nncc2ccccc12

Response:
["inactive", "inactive", "inactive"]

Items follow; give Potency for each.
1. Cc1cc2c(s1)Nc1ccccc1N=C2N1CCN(C)CC1
2. C[C@H](Cc1ccc(O)c(O)c1)[C@@H](C)Cc1ccc(O)c(O)c1
3. CCCc1cc(=O)[nH]c(=S)[nH]1
4. CCCCCCCCCCCCCCCCCCCCCCO

Response:
1: inactive; 2: 11.8 µM (active); 3: inactive; 4: inactive

###

Test Name: Cell Viability - LYMP1-003 - Assay at 40 hr (AID 964); note: nearly all actives have a fitted effect of over 60% in size; note: potency is the fitted concentration of half-maximal effect
Condition Summary: LYMP1-003 lymphoblastoid viability; series mostly up to 92.2 µM
Text: NIH Chemical Genomics Center [NCGC] NIH Molecular Libraries Screening Centers Network [MLSCN] National Institutes of Environmental Health Sciences [NIEHS] National Toxicology Program [NTP] We have developed a 1536-well cell-based assay for quantitative high throughput screening (qHTS) against a number of cell lines to determine in vitro cytotoxicity of small molecules. […] 8. Detection; Luminescence; Viewlux plate reader […]
Results filed as inconclusive are left out. The source made the active and inactive calls. Calls follow the shape of the dose curve; as a rule, active = well fitted cell-killing curve with a large enough effect; inconclusive = small, poorly fitted or top-dose-only effect; inactive = flat fitted curve, though single readings scatter. Peptide text beside a SMILES is read from it.
Quantity: Potency

See these solved cases before continuing.
COC(=O)[C@H](Cc1ccccc1)NC(=O)[C@@H](N)CC(=O)O (H-Asp-Phe-OMe) | inactive
CN(C)c1ccc2nc3ccc(=[N+](C)C)cc-3sc2c1 | 3.98 µM (active)
CS(=O)(=O)OCCCCOS(C)(=O)=O | inactive
Cc1cc(O)c2c(c1)C(=O)c1cc(O)cc(O)c1C2=O | inactive
Cc1ccc(C)c(OCCCC(C)(C)C(=O)O)c1 | inactive

Items follow; give Potency for each.
1. CCCCC(CC)COC(=O)C(C#N)=C(c1ccccc1)c1ccccc1 (configuration not stated)
2. c1ccc2[nH]c(-c3cscn3)nc2c1

Response:
1: inactive; 2: inactive

###

Target Or System: Thyroid hormone receptor beta (Homo sapiens)
Test Name: qHTS assay for small molecule antagonists of thyroid hormone receptor beta signaling (AID 588547);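 note: cells stimulated with 0.4 nM T3 agonist during compound exposure; % is set by controls: 0 for no effect and ±100 for the full control effect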
Condition Summary: TR-UAS-bla HEK293, beta-lactamase ratio, antagonist mode, 18 h
Inconclusive results are not listed.
Decision: activity change % (negative = inhibition) compared against -10%; not below it gives Met, below it gives Not met.

Nc1ccc(S(N)(=O)=O)cc1 | Met
CCCCC(CC)COC(=O)C(C#N)=C(c1ccccc1)c1ccccc1 (stereo unspecified) | Met
c1ccc2[nH]c(-c3cscn3)nc2c1 | Not met
Nc1nc(Cl)nc2c1ncn2[C@H]1C[C@H](O)[C@@H](CO)O1 | Met
CCN(CC)C(=S)SSC(=S)N(CC)CC | Met

Query: Evaluate CN(C)c1ccc2nc3ccc(=[N+](C)C)cc-3sc2c1 : activity change % (negative = inhibition) at minimum -10%?
Response: Met

###

Test Name: qHTS profiling of the MIPE4 collection as inhibitors of Plasmodium falciparum (HB3) proliferation (AID 743347);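 note: plate controls were DMSO vehicle wells for no effect and artemisinin wells for full effect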
Condition Summary: P. falciparum HB3 in erythrocytes, SYBR Green DNA, 72 h; at 28.5 µM (top of the series) unless noted
Quantity: growth, % of control (%)
One number for each entry, in %.

See these solved cases before continuing.
COc1c(O)cc2c(c1O)[C@@H]1O[C@H](CO)[C@@H](O)[C@H](O)[C@H]1OC2=O | 116
CC1(C)NC(=O)N(c2ccc([N+](=O)[O-])c(C(F)(F)F)c2)C1=O | 91
CN(C)CCCC1(c2ccc(F)cc2)OCc2cc(C#N)ccc21 (centres undefined) | 93
COCCCN1CCC(NC(=O)c2cc(Cl)c(N)c3c2OCC3)CC1 | 15.7
CN(C)C(=O)[C@H](O)[C@H](Cc1ccccc1)NC(=O)c1cc2cc(Cl)ccc2[nH]1 | 2.28
CC(C)(S)[C@@H](N)C(=O)O | 95.7
CS(=O)(=O)OCCCCOS(C)(=O)=O | 106
CC(=O)N1CCN(c2ccc(OC[C@H]3CO[C@](Cn4ccnc4)(c4ccc(Cl)cc4Cl)O3)cc2)CC1 | 6.71

Items follow; give growth, % of control for each.
1. Cn1c(NCCN(CCO)CCCc2ccc([N+](=O)[O-])cc2)cc(=O)n(C)c1=O
2. CCN(CC)CCOc1ccc(Cc2ccccc2)cc1
3. COc1cc2nc(N3CCN(C(=O)C4CCCO4)CC3)nc(N)c2cc1OC (centres undefined)
4. c1ccc2[nH]c(-c3cscn3)nc2c1
5. Cc1ccc(C(=O)c2cc(O)c(O)c([N+](=O)[O-])c2)cc1
6. c1cnc2cc3c(cc2n1)C1CNCC3C1
7. COC(=O)N[C@H](C(=O)N[C@@H](Cc1ccccc1)[C@@H](O)CN(Cc1ccc(-c2ccccn2)cc1)NC(=O)[C@@H](NC(=O)OC)C(C)(C)C)C(C)(C)C

Response:
1: 9.64; 2: 84.7; 3: 11.3; 4: 9.5; 5: 92.8; 6: 68.4; 7: 9.81

###

Tested on: NIH3T3
Test Name: Cytotoxic Profiling of Annotated Libraries Using Quantitative High-Throughput Screening (AID 1296008); note: nearly all actives have a fitted effect of over 60% in size
Condition Summary: Five cell lines viability, CellTiter-Glo ATP luminescence, 48-72 h
Inconclusive results are not listed. Activity calls are given as the source filed them. Calls come from the whole dose curve; as a rule, active = well fitted inhibition curve with a large enough effect; inconclusive = small, poorly fitted or top-dose-only effect; inactive = flat fitted curve, though single readings scatter.
Pick one and only one: active, inactive

Some entries whose results are on file:
Cc1ncc([N+](=O)[O-])n1CC(C)O (stereo not drawn) | inactive
Oc1ccc2ccccc2c1SSc1c(O)ccc2ccccc12 | inactive
Cc1c(C(=O)NN2CCCCC2)nn(-c2ccc(Cl)cc2Cl)c1-c1ccc(Cl)cc1 | inactive
C[Se]CCC(N)C(=O)O (stereo not drawn) | inactive
CCC(C)(Oc1ccc(C2(c3ccc(OC(C)(CC)C(=O)O)cc3)CCCCC2)cc1)C(=O)O (stereo not drawn) | inactive

Please find the next compound below.
Query: Give the logged outcome of this assay for the following compound: CCOC(=O)c1c(C)n(C)c2ccc(O)cc12
Response: inactive

###

Test Name: Drug repurposing screens with cells derived from glioblastoma tumor samples (AID 1345199); note: % is set by controls: 0 for no effect and ±100 for the full control effect; nearly all actives have a fitted effect of over 40% in size
Condition Summary: GBM patient neurospheres viability, ATP luminescence, 48 h; at 45.9 µM (top of the series); tumour line D
Results filed as inconclusive are left out.
Quantity: activity, negative = cell killing (%)
Give bare numbers, in %.

See these solved cases before continuing.
CS(=O)(=O)OCCCCOS(C)(=O)=O | -5.18
Nc1ccn([C@@H]2O[C@H](CO)[C@@H](O)C2O)c(=O)n1 (stereo partly specified) | -14.9
N=C(N)c1ccc2cc(OC(=O)c3ccc(N=C(N)N)cc3)ccc2c1 | -17
O=C(NCCO[N+](=O)[O-])c1cccnc1 | -18.1
O=C(OC1C[C@H]2CC[C@@H](C1)[N+]21CCCC1)C(O)(c1ccccc1)c1ccccc1 (stereo partly specified) | -11.8

Moving on to the next compound.
Query: Item O=P(O)(O)C(O)(Cn1ccnc1)P(=O)(O)O : provide activity, negative = cell killing
Response: -0.668
